Target: native nPFK-M enzyme (85 kDa) (Homo sapiens)
Sequence (P08237 1-780): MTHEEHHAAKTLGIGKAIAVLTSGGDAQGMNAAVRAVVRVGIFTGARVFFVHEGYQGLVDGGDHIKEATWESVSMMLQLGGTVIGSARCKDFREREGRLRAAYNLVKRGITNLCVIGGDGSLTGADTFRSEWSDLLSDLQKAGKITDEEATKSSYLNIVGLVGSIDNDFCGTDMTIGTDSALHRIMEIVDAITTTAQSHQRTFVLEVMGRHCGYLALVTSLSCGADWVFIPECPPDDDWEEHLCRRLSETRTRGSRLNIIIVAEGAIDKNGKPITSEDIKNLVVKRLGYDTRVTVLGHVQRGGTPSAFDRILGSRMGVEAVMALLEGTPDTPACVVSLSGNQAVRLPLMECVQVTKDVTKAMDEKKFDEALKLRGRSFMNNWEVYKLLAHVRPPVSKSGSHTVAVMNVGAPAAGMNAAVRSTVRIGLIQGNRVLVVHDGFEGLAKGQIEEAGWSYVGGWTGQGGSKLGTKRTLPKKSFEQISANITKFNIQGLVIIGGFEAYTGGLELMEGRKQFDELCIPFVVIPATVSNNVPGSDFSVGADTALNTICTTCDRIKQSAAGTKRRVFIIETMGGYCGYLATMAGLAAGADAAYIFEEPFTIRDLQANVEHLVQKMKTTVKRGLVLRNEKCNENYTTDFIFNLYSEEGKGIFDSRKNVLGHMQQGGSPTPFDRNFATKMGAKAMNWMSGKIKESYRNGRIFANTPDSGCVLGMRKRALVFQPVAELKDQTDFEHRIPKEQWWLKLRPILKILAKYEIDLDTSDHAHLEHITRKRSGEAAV
property-label: IC50 (µM)
One number for each entry, in µM.

Please look up its IC50: O=C(CSc1nnc(-c2ccc3c(c2)OCO3)o1)Nc1ccon1 [cmpd No. 3]
18
